Recorded values, source patent US11702426B2.

Each entry below carries its recorded HEK293 TLR7-NFκB-luc (LEC; μM).
target: human TLR7 (Homo sapiens, UniProt Q9NYK1)
Construct: expressed in transfected cells; host or cells: HEK293
assay details: HEK293 TLR7-NFκB-luc cellular reporter assay
Type: cell-based
test context: lowest effective concentration; HEK293 transiently transfected with TLR7 and NFκB-luc; 6 hours incubation
Write down the numeric answer in µM and omit the unit.

compound="Nc1nc2cc3c1nc(O)n3Cc1cccc(c1)NCCCCO2 [Compound 23]" endpoint_name="HEK293 TLR7-NFκB-luc (LEC; μM)" obs_value=16.74
compound="Cl.Nc1nc2cc3c1nc(O)n3Cc1cc(F)cc(c1)OC/C=C/CCO2 [Compound 28]" endpoint_name="HEK293 TLR7-NFκB-luc (LEC; μM)" obs_value=0.91
compound="Nc1nc2cc3c1nc(O)n3Cc1cccc(c1)OC/C=C/CO2 [Compound 1]" endpoint_name="HEK293 TLR7-NFκB-luc (LEC; μM)" obs_value=2.88
compound="COc1ccc2cc1OC/C=C/COc1cc3c(nc(O)n3CC2)c(N)n1 [Compound 36]" endpoint_name="HEK293 TLR7-NFκB-luc (LEC; μM)" obs_value=13.75

Dear colleague, I am looking for the recorded HEK293 TLR7-NFκB-luc (LEC; μM) of the following compound: Nc1nc2cc3c1nc(O)n3Cc1cccc(c1)OCCCCO2 [Compound 2]
4.47

Param item = Cl.Nc1nc2cc3c1nc(O)n3Cc1ccc(F)c(c1)OC/C=C/CCO2 [Compound 22] ; retrieve measured HEK293 TLR7-NFκB-luc (LEC; μM).
1.83

Given the compound Nc1nc2cc3c1nc(O)n3Cc1cccc(c1)NC/C=C\CCO2 [Compound 29] , what is its reported HEK293 TLR7-NFκB-luc (LEC; μM)?
1.14

Recorded HEK293 TLR7-NFκB-luc (LEC; μM) for Nc1nc2cc3c1nc(O)n3Cc1cccc(c1)OCCCCCO2 [Compound 14] , please?
7.01

For the compound shown here, COc1cc2cc(c1)OC/C=C/COc1cc3c(nc(O)n3C2)c(N)n1 [Compound 12] , give the reported HEK293 TLR7-NFκB-luc (LEC; μM).
1.08

Return reported HEK293 TLR7-NFκB-luc (LEC; μM); argument: Nc1nc2cc3c1nc(O)n3Cc1cccc(c1)C/C=C/CCO2 [Compound 3]
0.27

Given Nc1nc2cc3c1nc(O)n3Cc1ncccc1OC/C=C/CCO2 [Compound 5] , state its recorded HEK293 TLR7-NFκB-luc (LEC; μM).
2.14

What value of HEK293 TLR7-NFκB-luc (LEC; μM) has been reported for the following compound? Nc1nc2cc3c1nc(O)n3Cc1cccc(c1)NC/C=C/CO2 [Compound 18]
8.02

Quick check: HEK293 TLR7-NFκB-luc (LEC; μM) of Nc1nc2cc3c1nc(O)n3Cc1cccc(c1)CCCCCO2 [Compound 4] ?
2.38

Record request: HEK293 TLR7-NFκB-luc (LEC; μM) value, item Nc1nc2cc3c1nc(O)n3Cc1cc(F)cc(c1)OCCCCO2 [Compound 33]
2.77

Using the record for Nc1nc2cc3c1nc(O)n3Cc1cc(F)cc(c1)OCCCCCO2 [Compound 32] , report its HEK293 TLR7-NFκB-luc (LEC; μM).
2.92

Need HEK293 TLR7-NFκB-luc (LEC; μM) of COc1cc2cc(c1)OCCCCOc1cc3c(nc(O)n3C2)c(N)n1 [Compound 13] , thanks.
1.71

What HEK293 TLR7-NFκB-luc (LEC; μM) value was documented for this compound, Nc1nc2cc3c1nc(O)n3Cc1cccc(c1)NC/C=C/CCO2 [Compound 26] ?
1.88

Item Nc1nc2cc3c1nc(O)n3Cc1cccc(c1)NCCCCCO2 [Compound 34] has what recorded HEK293 TLR7-NFκB-luc (LEC; μM)?
8.1

Which HEK293 TLR7-NFκB-luc (LEC; μM) is reported for this compound? Nc1nc2cc3c1nc(O)n3Cc1ncccc1OCCCCCO2 [Compound 6]
1

Which HEK293 TLR7-NFκB-luc (LEC; μM) value belongs to COc1ccc2cc1OCCCCOc1cc3c(nc(O)n3C2)c(N)n1 [Compound 8] ?
7.1

---

# Lookup of reported HEK293 TLR7-NFκB-luc (LEC; μM) keyed by entry
target: human TLR7 (Homo sapiens, UniProt Q9NYK1)
Construct: expressed in transfected cells; host or cells: HEK293
Sequence (Q9NYK1 27-1049): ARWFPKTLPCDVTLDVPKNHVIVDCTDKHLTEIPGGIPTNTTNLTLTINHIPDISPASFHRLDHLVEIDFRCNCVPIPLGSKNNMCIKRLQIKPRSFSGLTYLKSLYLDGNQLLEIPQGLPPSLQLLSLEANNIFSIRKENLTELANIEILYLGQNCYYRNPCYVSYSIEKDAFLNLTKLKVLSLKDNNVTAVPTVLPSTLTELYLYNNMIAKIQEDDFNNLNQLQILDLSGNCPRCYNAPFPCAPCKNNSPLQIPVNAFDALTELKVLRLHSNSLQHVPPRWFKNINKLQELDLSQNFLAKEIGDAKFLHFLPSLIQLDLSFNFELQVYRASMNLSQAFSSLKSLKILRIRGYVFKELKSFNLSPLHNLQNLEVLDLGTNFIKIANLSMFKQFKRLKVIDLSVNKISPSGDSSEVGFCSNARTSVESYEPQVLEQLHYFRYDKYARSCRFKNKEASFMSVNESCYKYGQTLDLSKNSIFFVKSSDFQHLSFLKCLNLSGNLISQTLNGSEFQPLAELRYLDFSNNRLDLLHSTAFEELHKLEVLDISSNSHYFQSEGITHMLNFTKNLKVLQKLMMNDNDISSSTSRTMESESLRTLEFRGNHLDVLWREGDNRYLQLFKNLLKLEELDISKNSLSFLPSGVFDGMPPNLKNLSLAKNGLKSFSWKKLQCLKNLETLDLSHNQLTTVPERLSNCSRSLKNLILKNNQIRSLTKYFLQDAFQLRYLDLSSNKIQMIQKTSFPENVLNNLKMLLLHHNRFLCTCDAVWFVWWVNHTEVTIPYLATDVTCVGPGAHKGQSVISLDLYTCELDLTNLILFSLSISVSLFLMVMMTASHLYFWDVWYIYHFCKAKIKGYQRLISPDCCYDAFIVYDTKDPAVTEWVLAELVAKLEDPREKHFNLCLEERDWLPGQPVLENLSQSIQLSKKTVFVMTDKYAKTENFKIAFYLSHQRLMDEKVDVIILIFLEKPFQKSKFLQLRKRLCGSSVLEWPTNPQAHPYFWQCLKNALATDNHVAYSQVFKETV
assay details: HEK293 TLR7-NFκB-luc cellular reporter assay
Format: cell-based
test context: lowest effective concentration; HEK293 transiently transfected with TLR7 and NFκB-luc; 6 hours incubation
Report the value in µM with no unit label.

structure_as_smiles=COc1cc2cc(c1)OC/C=C/CCOc1cc3c(nc(O)n3C2)c(N)n1 endpoint_name="HEK293 TLR7-NFκB-luc (LEC; μM)" value_unit=µM obs_value=0.18
structure_as_smiles=Cl.Nc1nc2cc3c1nc(O)n3Cc1cc(F)cc(c1)OC/C=C/CO2 endpoint_name="HEK293 TLR7-NFκB-luc (LEC; μM)" value_unit=µM obs_value=1.19
structure_as_smiles=Nc1nc2cc3c1nc(O)n3Cc1cc(F)cc(c1)OC/C=C/CO2 endpoint_name="HEK293 TLR7-NFκB-luc (LEC; μM)" value_unit=µM obs_value=0.64
structure_as_smiles=Nc1nc2cc3c1nc(O)n3Cc1cccc(c1)CCCCCN2 endpoint_name="HEK293 TLR7-NFκB-luc (LEC; μM)" value_unit=µM obs_value=11.09
structure_as_smiles=Nc1nc2cc3c1nc(O)n3Cc1cccc(c1)OC/C=C/CCO2 endpoint_name="HEK293 TLR7-NFκB-luc (LEC; μM)" value_unit=µM obs_value=0.78

For the record "Nc1nc2cc3c1nc(O)n3Cc1ccc(F)c(c1)OC/C=C/CCO2" , what value of HEK293 TLR7-NFκB-luc (LEC; μM) is listed for human TLR7 (Homo sapiens, UniProt Q9NYK1)?
0.9

I'm curious: which HEK293 TLR7-NFκB-luc (LEC; μM) was measured for "Nc1nc2cc3c1nc(O)n3Cc1cc(F)cc(c1)OC/C=C/CCO2" tested on human TLR7 (Homo sapiens, UniProt Q9NYK1)?
1.35

---

Item-by-item account of HEK293 TLR7-NFκB-luc (LEC; μM)
target: human TLR7 (Homo sapiens)
Construct: expressed in transfected cells; host or cells: HEK293
Sequence (Q9NYK1 27-1049): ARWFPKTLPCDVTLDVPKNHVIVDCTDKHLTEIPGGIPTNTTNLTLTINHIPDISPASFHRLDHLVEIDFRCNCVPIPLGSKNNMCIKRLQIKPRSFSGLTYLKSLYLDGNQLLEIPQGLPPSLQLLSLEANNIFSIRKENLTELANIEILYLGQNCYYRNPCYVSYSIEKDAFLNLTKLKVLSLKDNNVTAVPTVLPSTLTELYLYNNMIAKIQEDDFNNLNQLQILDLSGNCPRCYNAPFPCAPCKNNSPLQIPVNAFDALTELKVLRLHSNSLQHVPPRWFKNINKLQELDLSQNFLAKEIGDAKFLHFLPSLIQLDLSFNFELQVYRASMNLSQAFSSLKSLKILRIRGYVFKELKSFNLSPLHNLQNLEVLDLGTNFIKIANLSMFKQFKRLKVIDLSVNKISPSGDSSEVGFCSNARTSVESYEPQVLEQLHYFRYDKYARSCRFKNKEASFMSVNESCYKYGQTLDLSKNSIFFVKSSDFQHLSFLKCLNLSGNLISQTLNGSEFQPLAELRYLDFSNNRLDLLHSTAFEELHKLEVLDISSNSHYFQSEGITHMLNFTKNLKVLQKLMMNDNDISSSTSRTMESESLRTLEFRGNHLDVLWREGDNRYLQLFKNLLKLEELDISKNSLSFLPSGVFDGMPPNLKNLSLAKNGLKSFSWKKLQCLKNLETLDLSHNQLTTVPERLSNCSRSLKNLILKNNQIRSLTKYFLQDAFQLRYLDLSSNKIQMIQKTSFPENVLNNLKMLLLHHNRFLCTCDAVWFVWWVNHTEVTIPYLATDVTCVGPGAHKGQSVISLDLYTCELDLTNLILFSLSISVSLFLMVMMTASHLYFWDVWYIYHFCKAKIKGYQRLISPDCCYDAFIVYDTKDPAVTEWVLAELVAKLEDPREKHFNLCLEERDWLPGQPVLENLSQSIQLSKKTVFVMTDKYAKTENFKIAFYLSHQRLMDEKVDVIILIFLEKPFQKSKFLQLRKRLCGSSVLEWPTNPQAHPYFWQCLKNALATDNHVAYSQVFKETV
assay details: HEK293 TLR7-NFκB-luc cellular reporter assay
Assay type: cell-based
test context: lowest effective concentration; HEK293 transiently transfected with TLR7 and NFκB-luc; 6 hours incubation
Record the value in µM, omitting the unit from your answer.

structure_as_smiles=Nc1nc2cc3c1nc(O)n3Cc1cccc(c1)OC/C=C/CCCO2 target="human TLR7 (Homo sapiens)" endpoint_name="HEK293 TLR7-NFκB-luc (LEC; μM)" obs_value=1.25
structure_as_smiles=Nc1nc2cc3c1nc(O)n3CCc1cccc(c1)OC/C=C/CO2 target="human TLR7 (Homo sapiens)" endpoint_name="HEK293 TLR7-NFκB-luc (LEC; μM)" obs_value=17.43
structure_as_smiles=Nc1nc2cc3c1nc(O)n3Cc1ccc(F)c(c1)OCCCCCO2 target="human TLR7 (Homo sapiens)" endpoint_name="HEK293 TLR7-NFκB-luc (LEC; μM)" obs_value=14.96
structure_as_smiles=COc1ccc2cc1OC/C=C/COc1cc3c(nc(O)n3C2)c(N)n1 target="human TLR7 (Homo sapiens)" endpoint_name="HEK293 TLR7-NFκB-luc (LEC; μM)" obs_value=3.88
structure_as_smiles=Nc1nc2cc3c1nc(O)n3Cc1ccc(F)c(c1)OC/C=C/CO2 target="human TLR7 (Homo sapiens)" endpoint_name="HEK293 TLR7-NFκB-luc (LEC; μM)" obs_value=2.02

Consider the molecule shown here: "Nc1nc2cc3c1nc(O)n3Cc1cccc(c1)OCC/C=C/CO2" What is its recorded HEK293 TLR7-NFκB-luc (LEC; μM)?
1.92

// HEK293 TLR7-NFκB-luc (LEC; μM) lookup, key: "Cl.Nc1nc2cc3c1nc(O)n3Cc1ccc(F)c(c1)OCCCCCO2"
4.99

Given the molecule "Cl.Nc1nc2cc3c1nc(O)n3Cc1ccc(F)c(c1)OC/C=C/CO2" , what is its reported HEK293 TLR7-NFκB-luc (LEC; μM)?
1.88
